# Test system: parasites (ring stage parasites, parasite growth)
# Assay method text: Parasite LDH growth assay (Parasite Assay), antiparasite potency
# Type: cell-based
# Experimental conditions: 72 h, 72 hours growth, LDH readout; Table 3
pEC50: −log10 of the molar value.
Recorded pEC50 by entry
Property measured: pEC50

compound="CCC1(CC)CC(=O)N(CC2C(C(=O)N[C@H]3C[C@H](C(F)(F)F)Oc4ccccc43)C2(C)C)C(=N)N1 (stereo partly drawn) [Example 31A]" property_measured=pEC50 measured_value=6.67
compound="CCC1(CC)CC(=O)N([C@H](c2cccnc2)[C@@H]2C[C@H]2C(=O)N[C@@H]2c3ccccc3OC(C)(C)[C@H]2O)C(=N)N1 [Example 11B]" property_measured=pEC50 measured_value=7.62
compound="CC1[C@@H]([C@@H](c2cccnc2)N2C(=N)NC(C)(C)CC2=O)[C@@H]1C(=O)N[C@H]1CC(C)(C)Oc2ccccc21 (stereo partly drawn) [Example 57A]" property_measured=pEC50 measured_value=8.49
compound="COCC[C@H]([C@@H]1C[C@H]1C(=O)N[C@H]1CC(C)(C)Oc2ccc(F)cc21)N1C(=N)NC(C)(C)CC1=O [Example 72B]" property_measured=pEC50 measured_value=8.60
compound="COCC[C@H]([C@@H]1C[C@H]1C(=O)N[C@@H]1CC(C)(C)Oc2c(C(F)(F)F)ccc(F)c21)N1C(=N)NC(C)(C)CC1=O [Example 114A]" property_measured=pEC50 measured_value=7.05
compound=CCC1(CC)CC(=O)N([C@H](CCOC)[C@@H]2C[C@H]2C(=O)N[C@@H]2c3ccccc3C[C@H]2O)C(=N)N1 property_measured=pEC50 measured_value=7.62

* * *

Consider the following compounds and their measured pEC50 readings.
# Tested on: parasites (ring stage parasites, parasite growth)
# Assay method text: Parasite LDH growth assay (Parasite Assay), antiparasite potency
# Type: cell-based
# Experimental conditions: 72 h, 72 hours growth, LDH readout; Table 3
# Description: Assessing Antiparasite Potency in a Parasite LDH Growth Assay (Parasite Assay) The parasite stock was maintained at […] in RPMI-Hepes media buffered with sodium bicarbonate and supplemented with […]. […] On the day of assay set up, a blood smear of the parasite culture was Giemsa stained and counted. […]
pEC50: −log10 of the molar value.
Property measured: pEC50

compound=CC1(C)CC(=O)N([C@H](c2cccnc2)[C@@H]2C[C@H]2C(=O)N[C@H]2C[C@H](C(F)(F)F)Oc3ccccc32)C(=N)N1 property_measured=pEC50 measured_value=8.74
compound=CC1(C)CC(=O)N(C[C@@H]2C[C@H]2C(=O)N[C@H]2CC(C)(C)Oc3ccc(F)cc32)C(=N)N1 property_measured=pEC50 measured_value=6.90
compound="COCC[C@H]([C@@H]1C[C@H]1C(=O)N[C@H]1CC(C)(C)Oc2cccc(F)c21)N1C(=N)NC(C)(C)CC1=O [Example 88A]" property_measured=pEC50 measured_value=8.28
compound=CC1(C)CC(=O)N(C[C@@H]2C[C@H]2C(=O)N[C@H]2CC(C)(C)Oc3c(C(F)(F)F)ccc(F)c32)C(=N)N1 property_measured=pEC50 measured_value=6.89
compound=CCC1(CC)CC(=O)N(C[C@@H]2C[C@H]2C(=O)N[C@@H](C)c2ccccc2)C(=N)N1 property_measured=pEC50 measured_value=6.82
compound="COCC[C@H]([C@@H]1C[C@H]1C(=O)N[C@H]1CC(C)(C)Oc2ccc(C(F)(F)F)cc21)N1C(=N)NC(C)(C)CC1=O [Example 110B]" property_measured=pEC50 measured_value=8.14
compound=CCC1(CC)CC(=O)N(C[C@@H]2C[C@H]2C(=O)N[C@H]2C[C@H](C(F)(F)F)Oc3ccccc32)C(=N)N1 property_measured=pEC50 measured_value=7.43
